- Test protocol: gradient 5% acetonitrile 3 min, to 50% in 2 min, to 85% in 15 min, held 3 min, 100 µL/min
- Settings: column: Zorbax Extend-C18 2.1 x 50 mm; eluents: water / acetonitrile, 0.1% formic acid
// classify(record): look up RP-LC retention time in ranges A = under 600 s, B = from 600 s up to 900 s, C = 900 s and over

### Prompt Which band does Cc1sc2ncnc(N3CCCC(C)C3)c2c1C(=O)Nc1cccc(F)c1C (configuration not stated) fall in?
### Response C

### Prompt Which band does O=C(NCC1CCCO1)C1CCN(C(=O)c2ncn3c2COC(c2ccccc2)C3)CC1 (configuration not stated) fall in?
### Response B

### Prompt Which band does O=C(c1cn2ccccc2n1)N1CCN(Cc2cccc(F)c2)CC1 fall in?
### Response A

### Prompt Which band does CCC(=O)N1CCc2cc(N3CC(C(=O)Nc4ccc(OC)cc4C)CC3=O)ccc21 (configuration not stated) fall in?
### Response B

### Prompt Which band does O=C1CCC2(C(=O)N3CCN(c4ccccn4)CC3)CCC=C2N1C1CCCC1 (configuration not stated) fall in?
### Response A

### Prompt Which band does CCOc1ccccc1-c1noc(-c2cc(-c3ccccc3)n[nH]2)n1 fall in?
### Response C

### Prompt Which band does CSc1c(C)c(SC)n2ccncc12 fall in?
### Response B

### Prompt Which band does Cc1ccc2c(NCc3ccc4c(c3)OCO4)c(-c3nc(C)no3)cnc2n1 fall in?
### Response C

### Prompt Which band does CC(=O)NCc1ccc(-c2noc(-c3ccc(F)c(Cl)c3)n2)s1 fall in?
### Response C

### Prompt Which band does Cc1cc(=O)n(CC(=O)NCc2ccc3c(c2)OCO3)c(N2CCCCC2)n1 fall in?
### Response C

### Prompt Which band does O=C(NC1CC1)c1ccc2ncnc(N3CCCCC3)c2c1 fall in?
### Response A

### Prompt Which band does COc1ccc(-c2c(C)noc2NC(C)=O)cc1S(=O)(=O)Nc1ccc(C#N)cc1 fall in?
### Response B

### Prompt Which band does Cc1nnc2ccc(NC3CC3)nn12 fall in?
### Response B

### Prompt Which band does CCOc1ccccc1NC(=O)N1CCCC1c1nc(-c2ccccc2OC)no1 (configuration not stated) fall in?
### Response B

### Prompt Which band does CCc1nnc(-c2ccc3ccn(CC(=O)N4CCN(c5ccc(OC)cc5)CC4)c3c2)o1 fall in?
### Response B

### Prompt Which band does C=CCn1c(C)c(CC(=O)Nc2ccc(F)cc2)c(=O)n2nc(-c3ccc(C)cc3)nc12 fall in?
### Response C

### Prompt Which band does CN1CCN(c2nc(Nc3ccc4c(c3)OCO4)c3cnn(-c4ccccc4)c3n2)CC1 fall in?
### Response B

### Prompt Which band does Cn1cc(S(=O)(=O)N2CCC(C(=O)NCc3cccnc3)CC2)cc1C(=O)N1CCCC1 fall in?
### Response B

### Prompt Which band does CCc1nnc(NS(=O)(=O)c2ccc(NC(=O)c3ccc(Cl)s3)cc2)s1 fall in?
### Response B

### Prompt Which band does O=C(Cn1cnc2nc(-c3cccnc3)ncc2c1=O)Nc1ccc2c(c1)OCO2 fall in?
### Response B

###

Would you mind telling me the reported RP-LC retention time of each entry?
- Test protocol: gradient 5% acetonitrile 3 min, to 50% in 2 min, to 85% in 15 min, held 3 min, 100 µL/min
- Settings: column: Zorbax Extend-C18 2.1 x 50 mm; eluents: water / acetonitrile, 0.1% formic acid
Quick note: give the figure in s, leave out the unit.

### Prompt So what's the measured RP-LC retention time for this one? CC(CCc1ccccc1)NC(=O)Cc1nnc(-c2ccccn2)o1 (configuration not stated)
### Response 744

### Prompt So what's the measured RP-LC retention time for this one? CCOC(=O)C1CCN(C(=O)C2CCN(c3nnc(-c4ccccc4)o3)CC2)CC1
### Response 801

### Prompt So what's the measured RP-LC retention time for this one? COc1ccc(CNC(=O)C2(C)Cc3ccccc3C(=O)N2Cc2ccco2)cc1 (configuration not stated)
### Response 860

### Prompt So what's the measured RP-LC retention time for this one? Cc1nnc(-c2ccc(S(=O)(=O)N3CCC(C)CC3)o2)o1
### Response 815

### Prompt So what's the measured RP-LC retention time for this one? Cc1ccccc1-c1nc(-c2nnn(Cc3ccccc3)c2C)no1
### Response 1120

### Prompt So what's the measured RP-LC retention time for this one? COc1cccc(CN2CC=C(C(=O)N3CCN(c4ccccc4)CC3)CC2)c1
### Response 664

### Prompt So what's the measured RP-LC retention time for this one? Cc1cc(Cl)ccc1S(=O)(=O)N1CCc2nn(CC(C)C)c(=O)n2CC1
### Response 919

### Prompt So what's the measured RP-LC retention time for this one? O=C(NCc1ccc2c(c1)OCO2)C1CCN(c2ccc(SCc3ccccc3)nn2)CC1
### Response 742

### Prompt So what's the measured RP-LC retention time for this one? Cc1ccc(Nc2c(-c3ccccc3O)nc3ccccn23)cc1
### Response 739

### Prompt So what's the measured RP-LC retention time for this one? CCCC(=O)Nc1ccc(-c2nc(-c3ccc(Cl)cc3)no2)cc1
### Response 1240

### Prompt So what's the measured RP-LC retention time for this one? CCC(=O)N1CCN(c2nc(CC(C)C)c3c(c2C#N)CC(C)(C)OC3)CC1
### Response 1110

### Prompt So what's the measured RP-LC retention time for this one? CCC(CC)NC(=O)CCC1CCN(c2cc(NC3CC3)ncn2)CC1
### Response 654

### Prompt So what's the measured RP-LC retention time for this one? Cc1cc(Cl)ccc1NS(=O)(=O)c1cc2c(s1)CCN(C(=O)C1CC1)C2
### Response 923

### Prompt So what's the measured RP-LC retention time for this one? CCc1ccc(CNC(=O)c2ccc3[nH]c4c(c3c2)CN(C(C)=O)CC4)cc1
### Response 680

### Prompt So what's the measured RP-LC retention time for this one? Cc1nc(-c2ccccc2)sc1C(=O)Nc1nc(-c2ccc(F)cc2)cs1
### Response 1250

### Prompt So what's the measured RP-LC retention time for this one? CSc1ccc(CNC(=O)C2CCCN(C(=O)c3[nH]c(C)c(C(=O)OC(C)C)c3C)C2)cc1 (configuration not stated)
### Response 929

### Prompt So what's the measured RP-LC retention time for this one? Cc1ccc(CNC(=O)C2(C)CN(S(=O)(=O)c3ccccc3)CC(=O)N2CCC(C)C)cc1 (configuration not stated)
### Response 1030

### Prompt So what's the measured RP-LC retention time for this one? CCOc1ccc(NC(=O)N2CCc3cn(CC)c4cccc(c34)C2)cc1
### Response 952

### Prompt So what's the measured RP-LC retention time for this one? COc1cc(Cl)ccc1C(=O)Nc1ccc2c(c1)Sc1ncccc1C(=O)N2C
### Response 915

### Prompt So what's the measured RP-LC retention time for this one? O=C(Nc1ccc(F)cc1)N1CCCC(Cn2c(C3CC3)nc3cccnc32)C1 (configuration not stated)
### Response 675

### Prompt So what's the measured RP-LC retention time for this one? CC(C)c1cc(C(F)(F)F)nc(NNc2nc(C(C)C)cc(C(F)(F)F)n2)n1
### Response 924

### Prompt So what's the measured RP-LC retention time for this one? CS(=O)(=O)c1ccc2nc(NCCc3cccs3)sc2c1
### Response 738

### Prompt So what's the measured RP-LC retention time for this one? CCCn1cc(C(=O)NCC(=O)OC)c(S(=O)(=O)N2CCN(c3ccccc3OCC)CC2)n1
### Response 969

### Prompt So what's the measured RP-LC retention time for this one? CCOC(=O)Cc1n[nH]c(CSc2nc3ccccc3s2)n1
### Response 691

### Prompt So what's the measured RP-LC retention time for this one? CCCN1C(=O)Cc2ccccc2C1C(=O)NC1CCCCCC1 (configuration not stated)
### Response 862

### Prompt So what's the measured RP-LC retention time for this one? CC1=C(c2ccccc2)S(=O)(=O)N=C1N1CCCN(C(=O)c2ccco2)CC1
### Response 719

### Prompt So what's the measured RP-LC retention time for this one? CCn1cnc(S(=O)(=O)N2CCC(C(=O)Nc3ccc4c(c3)OCO4)CC2)c1
### Response 688
